Test: Phase I trial of oral PCLX-001: plasma pharmacokinetics, noncompartmental analysis (Phoenix WinNonlin 8.3)
Assay type: in vivo, human
Details: human, plasma, po, 20 mg, Table 6; Patient 115-002-004; Day 15; 20 mg QD oral; Pantoprazole No; read-out: Half-life (converted)
From the text: The clinical trial is entitled “Phase I Trial of PCLX-001 in B-cell Non-Hodgkin Lymphoma and Advanced Solid Malignancies” and registered at clinicaltrials.gov as NCT04836195. It is a phase I dose-escalation study of oral PCLX-001, conducted in a multicenter, non-randomized, open-label, non-controlled design. The study is comprised of two parts: Part A (single-agent dose escalation) and Part B (single-agent expansion cohorts). […]
measureName: half-life
State the value, then name its unit.

Give reported half-life value for Cc1c(NS(=O)(=O)c2c(Cl)cc(-c3ccnc(N4CCNCC4)c3)cc2Cl)c(CC(C)C)nn1C [PCLX-001]
6.47 h

###

Test: Phase I trial of oral PCLX-001: plasma pharmacokinetics, noncompartmental analysis (Phoenix WinNonlin 8.3)
Assay type: in vivo, human
Conditions: human, plasma, po, 140 mg, Table 10; Patient 115-002-006; Day 15; Dose 140 mg QD oral; Concomitant Pantoprazole No
measureName: Cmax

Give reported Cmax value for Cc1c(NS(=O)(=O)c2c(Cl)cc(-c3ccnc(N4CCNCC4)c3)cc2Cl)c(CC(C)C)nn1C [PCLX-001]
2200 ng/mL

###

Assay: Phase I trial of oral PCLX-001: plasma pharmacokinetics, noncompartmental analysis (Phoenix WinNonlin 8.3)
Type: in vivo, human
Details: human, plasma, po, 100 mg, Table 9; Patient 115-002-011; Day 1; 100 mg QD oral; Pantoprazole No
measureName: Cmax (ng/mL)
API: value field is a number in ng/mL; no unit string.

Give reported Cmax value for Cc1c(NS(=O)(=O)c2c(Cl)cc(-c3ccnc(N4CCNCC4)c3)cc2Cl)c(CC(C)C)nn1C
1650

###

Experiment: Phase I trial of oral PCLX-001: plasma pharmacokinetics, noncompartmental analysis (Phoenix WinNonlin 8.3)
Format: in vivo, human
Conditions: human, plasma, oral, 20 mg, Table 4; Mean (CV); not on Pantoprazole; 20 mg; N 3; Day 15
measureName: Cmax (ng/mL)
API: value field is a number in ng/mL; no unit string.

Give reported Cmax value for Cc1c(NS(=O)(=O)c2c(Cl)cc(-c3ccnc(N4CCNCC4)c3)cc2Cl)c(CC(C)C)nn1C
359

###

Experiment: PK and maximally tolerated dose, daily oral administration, mouse
Format: in vivo
Details: in vivo, po
measureName: Cmax

Give reported Cmax value for Cc1c(NS(=O)(=O)c2c(Cl)cc(-c3ccnc(N4CCNCC4)c3)cc2Cl)c(CC(C)C)nn1C
46000 ng/mL

###

Experiment: Phase I trial of oral PCLX-001: plasma pharmacokinetics, noncompartmental analysis (Phoenix WinNonlin 8.3)
Format: in vivo, human
Conditions: human, plasma, po, 40 mg, Table 7; Patient 115-002-006; Day 1; 40 mg QD oral; Pantoprazole Yes; read-out: AUClast or AUCtau
measureName: AUC(0-t) (ng·h/mL)
API: value field is a number in ng·h/mL; no unit string.

Give reported AUC(0-t) value for Cc1c(NS(=O)(=O)c2c(Cl)cc(-c3ccnc(N4CCNCC4)c3)cc2Cl)c(CC(C)C)nn1C [PCLX-001]
79.6

Reference source for all entries: patent US20250161299A1
